target: Recombinant human integrin αVβ6 receptor (Homo sapiens, UniProt P06756+P18564); experiment: Competitive solid-phase binding assay: inhibition of biotinylated fibronectin binding to isolated αVβ6 integrin
Sequence (P06756 31-889 limits assumed): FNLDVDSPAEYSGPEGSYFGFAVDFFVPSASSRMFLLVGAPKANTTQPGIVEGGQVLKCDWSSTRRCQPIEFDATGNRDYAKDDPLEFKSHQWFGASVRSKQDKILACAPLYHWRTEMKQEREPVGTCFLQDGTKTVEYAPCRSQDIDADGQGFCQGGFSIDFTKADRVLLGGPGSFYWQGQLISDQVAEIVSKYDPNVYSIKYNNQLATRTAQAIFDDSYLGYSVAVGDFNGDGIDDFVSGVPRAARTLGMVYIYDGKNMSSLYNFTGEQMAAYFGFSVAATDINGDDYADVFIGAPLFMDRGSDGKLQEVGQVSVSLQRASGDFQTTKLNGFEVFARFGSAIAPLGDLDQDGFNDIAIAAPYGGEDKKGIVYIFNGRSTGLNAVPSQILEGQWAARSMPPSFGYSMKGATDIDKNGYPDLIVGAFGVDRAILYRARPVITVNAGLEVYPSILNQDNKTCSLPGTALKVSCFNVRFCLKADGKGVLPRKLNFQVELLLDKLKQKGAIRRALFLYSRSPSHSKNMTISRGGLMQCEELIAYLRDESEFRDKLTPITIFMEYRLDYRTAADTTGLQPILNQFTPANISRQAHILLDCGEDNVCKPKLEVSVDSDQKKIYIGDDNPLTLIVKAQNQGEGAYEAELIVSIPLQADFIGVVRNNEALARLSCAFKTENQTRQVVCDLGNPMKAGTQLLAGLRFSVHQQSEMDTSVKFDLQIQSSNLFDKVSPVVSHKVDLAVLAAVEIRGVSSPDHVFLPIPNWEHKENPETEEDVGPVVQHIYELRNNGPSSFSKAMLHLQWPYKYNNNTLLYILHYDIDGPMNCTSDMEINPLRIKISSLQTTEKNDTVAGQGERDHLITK
Sequence (P06756 891-992 partner limits assumed): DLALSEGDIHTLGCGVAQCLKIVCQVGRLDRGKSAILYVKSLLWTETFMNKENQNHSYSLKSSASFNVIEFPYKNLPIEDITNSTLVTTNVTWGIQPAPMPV
Sequence (P18564 22-707 limits assumed): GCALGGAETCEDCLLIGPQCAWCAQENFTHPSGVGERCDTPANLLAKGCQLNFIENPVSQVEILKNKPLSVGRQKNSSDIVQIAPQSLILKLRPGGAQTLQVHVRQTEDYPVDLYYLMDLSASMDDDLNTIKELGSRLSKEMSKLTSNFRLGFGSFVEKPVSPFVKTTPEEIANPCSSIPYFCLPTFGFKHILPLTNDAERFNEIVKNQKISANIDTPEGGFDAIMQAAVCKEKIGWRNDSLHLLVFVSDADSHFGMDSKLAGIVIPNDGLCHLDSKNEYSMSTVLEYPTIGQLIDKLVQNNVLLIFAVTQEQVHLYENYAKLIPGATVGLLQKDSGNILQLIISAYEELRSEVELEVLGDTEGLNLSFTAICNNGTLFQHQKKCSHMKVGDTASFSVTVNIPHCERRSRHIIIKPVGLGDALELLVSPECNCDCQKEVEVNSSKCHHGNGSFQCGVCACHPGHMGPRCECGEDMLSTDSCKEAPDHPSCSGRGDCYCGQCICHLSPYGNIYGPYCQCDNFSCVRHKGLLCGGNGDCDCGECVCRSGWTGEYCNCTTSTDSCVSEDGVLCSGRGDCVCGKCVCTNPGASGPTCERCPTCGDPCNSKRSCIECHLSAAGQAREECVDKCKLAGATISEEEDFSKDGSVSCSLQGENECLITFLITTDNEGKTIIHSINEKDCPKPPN
// NB: equality with 0.1 µM counts as condition not met; only IC50 strictly below is condition met

compound: N=C(N)NCCC[C@@H]1NC(=O)C[C@H]2NC(=O)[C@H](CNC(=O)[C@H](CC(=O)O)NC(=O)CNC1=O)N(Cc1ccccc1)C2=O [Compound 3]
assay target: Recombinant human integrin αVβ6 receptor (Homo sapiens, UniProt P06756+P18564)
qualitative label: condition met
//
compound: N=C(N)NCCC[C@@H]1NC(=O)C[C@H]2C(=O)N(Cc3ccccc3)[C@H](CNC(=O)[C@H](CC(=O)O)NC(=O)CNC1=O)C(=O)N2Cc1ccccc1 [Compound 5]
assay target: Recombinant human integrin αVβ6 receptor (Homo sapiens, UniProt P06756+P18564)
qualitative label: condition not met
//
compound: N=C(N)NCCC[C@@H]1NC(=O)C[C@@H]2C(=O)N[C@@H](CNC(=O)[C@H](CC(=O)O)NC(=O)CNC1=O)C(=O)N2Cc1ccccc1 [Compound 6]
assay target: Recombinant human integrin αVβ6 receptor (Homo sapiens, UniProt P06756+P18564)
qualitative label: condition met
//
compound: N=C(N)NCCC[C@@H]1NC(=O)C[C@@H]2NC(=O)[C@@H](CNC(=O)[C@H](CC(=O)O)NC(=O)CNC1=O)N(Cc1ccccc1)C2=O [Compound 2]
assay target: Recombinant human integrin αVβ6 receptor (Homo sapiens, UniProt P06756+P18564)
qualitative label: condition not met
//
compound: N=C(N)NCCC[C@@H]1NC(=O)C[C@@H]2C(=O)N(Cc3ccccc3)[C@@H](CNC(=O)[C@H](CC(=O)O)NC(=O)CNC1=O)C(=O)N2Cc1ccccc1 [Compound 7]
assay target: Recombinant human integrin αVβ6 receptor (Homo sapiens, UniProt P06756+P18564)
qualitative label: condition met
//
compound: N=C(N)NCCC[C@@H]1NC(=O)C[C@H]2C(=O)N[C@H](CNC(=O)[C@H](CC(=O)O)NC(=O)CNC1=O)C(=O)N2Cc1ccccc1 [Compound 4]
assay target: Recombinant human integrin αVβ6 receptor (Homo sapiens, UniProt P06756+P18564)
qualitative label: condition met

---

molecular target: Recombinant human integrin αVβ6 receptor (Homo sapiens, UniProt P06756+P18564); construct: purchased R&D Systems; assay: Competitive solid-phase binding assay: inhibition of biotinylated fibronectin binding to isolated αVβ6 integrin; conditions: selectivity ratio
# IC50 (αVβ6)/IC50 (αVβ3) per entry

compound: CC1NC(=O)[C@H](CCCNC(=N)N)NC(=O)C[C@H]2NC(=O)[C@H](CNC(=O)[C@H](CC(=O)O)NC1=O)N(Cc1ccccc1)C2=O (stereo partly shown) [Compound 8, Cyclo[DKP-3-RAD]]
assay target: Recombinant human integrin αVβ6 receptor (Homo sapiens, UniProt P06756+P18564)
IC50 (αVβ6)/IC50 (αVβ3): 3

compound: N=C(N)NCCC[C@@H]1NC(=O)C[C@@H]2NC(=O)[C@@H](CNC(=O)[C@H](CC(=O)O)NC(=O)CNC1=O)N(Cc1ccccc1)C2=O
assay target: Recombinant human integrin αVβ6 receptor (Homo sapiens, UniProt P06756+P18564)
IC50 (αVβ6)/IC50 (αVβ3): 108

compound: N=C(N)NCCC[C@@H]1NC(=O)C[C@H]2NC(=O)[C@H](CNC(=O)[C@H](CC(=O)O)NC(=O)CNC1=O)N(Cc1ccccc1)C2=O
assay target: Recombinant human integrin αVβ6 receptor (Homo sapiens, UniProt P06756+P18564)
IC50 (αVβ6)/IC50 (αVβ3): 21

compound: N=C(N)NCCC[C@@H]1NC(=O)C[C@@H]2C(=O)N[C@@H](CNC(=O)[C@H](CC(=O)O)NC(=O)CNC1=O)C(=O)N2Cc1ccccc1
assay target: Recombinant human integrin αVβ6 receptor (Homo sapiens, UniProt P06756+P18564)
IC50 (αVβ6)/IC50 (αVβ3): 37
